Cited source: ChEMBL document CHEMBL2346531

test system: MCF7; experiment: Antiproliferative activity against human MCF7 cells transfected with human sigma1 receptor after 48 hrs by MTT assay; assay type: functional, cell-based; details: Homo sapiens, MCF7, 48 h
pEC50: −log10 of the molar value.
Endpoint: pEC50

Molecule: c1ccc(CCN2CCCCC2)cc1
pEC50: < 4.00

Quick request: pEC50 for each listed item, please.
1. COc1ccc2c(c1)CCCC2CCCN1C(C)(C)CCCC1(C)C (stereo not given)
2. COc1ccc2c(CCCN3C(C)(C)CCCC3(C)C)cccc2c1
3. COc1ccc2c(CCCN3[C@H](C)CCC[C@@H]3C)cccc2c1
4. COc1ccc2c(CCCCN3[C@H](C)CCC[C@@H]3C)cccc2c1.Cl

a:
< 4.00
< 4.00
< 4.00
4.00
